# Tested on: Rattus norvegicus
# RUN_DESCRIPTION: Antiinflammatory activity against carrageenan-induced albino rat hind paw edema model assessed as edema rate at 15 mg/kg, po administered 1 hr before carrageenan challenge measured after 1 hr
# Assay type: functional
Entry class follows Activity: low bin: < -30%; mid bin: ≥ -30% and < -10%; high bin: ≥ -10%

Worked examples, 3 molecules total:
Query :: Place this molecule in its band: `CCOC(=O)c1sc(N)c(C(=O)NN)c1C`
Result :: mid bin

Query :: Place this molecule in its band: `CCOC(=O)c1sc(N)c(C(=O)NNC(N)=S)c1C`
Result :: high bin

Query :: Place this molecule in its band: `CCOC(=O)c1sc(N)c(C(=O)NNc2nc(C)cs2)c1C`
Result :: low bin

New cases:
Query :: Place this molecule in its band: `CCOC(=O)c1sc(NC(C)=O)c(C(=O)OCC)c1C`
Result :: mid bin

###

# Test system: Rattus norvegicus
# RUN_DESCRIPTION: Antiinflammatory activity against carrageenan-induced albino rat hind paw edema model assessed as edema rate at 15 mg/kg, po administered 1 hr before carrageenan challenge measured after 2 hrs
# Format: functional
OBSERVABLE: Activity (%)
Numbers only here, please. The scale is %.

Example entries begin here.
Query :: // query Activity value for entry `CCOC(=O)c1sc2[nH]c(=S)n(N)c(=O)c2c1C`
Result :: -14.54

Query :: // query Activity value for entry `CCOC(=O)c1sc(N)c(C(=O)N2NC(=O)CC2=O)c1C`
Result :: -31.04

Query :: // query Activity value for entry `CCOC(=O)c1sc(N)c(C(=O)n2nc(C)cc2C)c1C`
Result :: 7.88

Query :: // query Activity value for entry `CCOC(=O)c1sc(N)c(C(=O)NN)c1C`
Result :: -8.84

Query :: // query Activity value for entry `CCOC(=O)c1sc(N)c(C(=O)NNC(N)=S)c1C`
Result :: -37.21

// below: Activity requested for another compound
Query :: // query Activity value for entry `CCOC(=O)c1sc2nc(C)n(N)c(=O)c2c1C`
Result :: -17.93

###

# Test system: Rattus norvegicus
# RUN_DESCRIPTION: Antiinflammatory activity against carrageenan-induced albino rat hind paw edema model at 15 mg/kg, po administered 1 hr before carrageenan challenge measured after 2 hrs relative to indomethacin
# Type: functional
OBSERVABLE: Activity (%)
Numbers only here, please. The scale is %.

Example entries begin here.
Query :: // query Activity value for entry `CCOC(=O)c1sc2[nH]c(=S)n(N)c(=O)c2c1C`
Result :: 36.54

Query :: // query Activity value for entry `CCOC(=O)c1sc(N)c(C(=O)N2NC(=O)CC2=O)c1C`
Result :: 78.01

Query :: // query Activity value for entry `CCOC(=O)c1sc(N)c(C(=O)NNC=O)c1C`
Result :: 96

Query :: // query Activity value for entry `CCOC(=O)c1sc2nc(C)n(N)c(=O)c2c1C`
Result :: 45.06

Query :: // query Activity value for entry `CCOC(=O)c1sc(N)c(C(=O)NNC(N)=S)c1C`
Result :: 93.52

// below: Activity requested for another molecule
Query :: // query Activity value for entry `CCOC(=O)c1sc(NC(C)=O)c(C(=O)OCC)c1C`
Result :: 30.44

###

# System: Fusarium equiseti
# RUN_DESCRIPTION: Antifungal activity against Fusarium equiseti (Corda) Sacc after 48 hrs by poisoned-food technique
# Type: functional
# Design: concentration or dose not given beside the values
Classification field: true = inhibition at or over 40%; false = inhibition under 40%.

Worked examples, 2 compounds total:
Query :: Is reported inhibition greater than or equal to 40% here: `CCOC(=O)c1sc(N)c(C(=O)NNC(N)=S)c1C`
Result :: false

Query :: Is reported inhibition greater than or equal to 40% here: `CCOC(=O)c1sc(NC(C)=O)c(C(=O)OCC)c1C`
Result :: false

New cases:
Query :: Is reported inhibition greater than or equal to 40% here: `CCOC(=O)c1sc2nc(C)n(N)c(=O)c2c1C`
Result :: false

Query :: Is reported inhibition greater than or equal to 40% here: `CCOC(=O)c1sc(N)c(C(=O)NNc2nc(C)cs2)c1C`
Result :: true

Query :: Is reported inhibition greater than or equal to 40% here: `CCOC(=O)c1sc(N)c(C(=O)NNC=O)c1C`
Result :: true

Query :: Is reported inhibition greater than or equal to 40% here: `CCOC(=O)c1sc(N)c(C(=O)N/N=C/c2ccc(OC)cc2)c1C`
Result :: false

Query :: Is reported inhibition greater than or equal to 40% here: `CCOC(=O)c1sc2[nH]c(=S)n(N)c(=O)c2c1C`
Result :: true

Query :: Is reported inhibition greater than or equal to 40% here: `CCOC(=O)c1sc(N)c(C(=O)NN)c1C`
Result :: false

###

# Tested on: Mus musculus
# RUN_DESCRIPTION: Analgesic activity in Swiss albino mouse at 20 mg/kg, po assessed as reaction time after 90 mins by hot plate method
# Format: functional
Entry class follows Activity: lower: < 6 s; middle: ≥ 6 s and < 8 s; upper: ≥ 8 s

Query :: Place this molecule in its band: `CCOC(=O)c1sc(N)c(C(=O)n2nc(C)cc2C)c1C`
Result :: upper

New cases:
Query :: Place this molecule in its band: `CCOC(=O)c1sc(N)c(C(=O)N/N=C/c2ccc(OC)cc2)c1C`
Result :: upper

Query :: Place this molecule in its band: `CCOC(=O)c1sc2nc(C)n(N)c(=O)c2c1C`
Result :: middle

Query :: Place this molecule in its band: `CCOC(=O)c1sc(N)c(C(=O)NNC=O)c1C`
Result :: lower

Query :: Place this molecule in its band: `CCOC(=O)c1sc2[nH]c(=S)n(N)c(=O)c2c1C`
Result :: middle

Query :: Place this molecule in its band: `CCOC(=O)c1sc(N)c(C(=O)NNc2nc(C)cs2)c1C`
Result :: lower

Query :: Place this molecule in its band: `CCOC(=O)c1sc(N)c(C(=O)N2NC(=O)CC2=O)c1C`
Result :: upper

###

Quick list: Activity per entry.
# Test system: Rattus norvegicus
# RUN_DESCRIPTION: Antiinflammatory activity against carrageenan-induced albino rat hind paw edema model at 15 mg/kg, po administered 1 hr before carrageenan challenge measured after 2 hrs relative to indomethacin
# Format: functional
Respond with a number, then the unit of measure.

Query :: // query Activity value for entry `CCOC(=O)c1sc(N)c(C(=O)n2nc(C)cc2C)c1C`
Result :: 19.8%

Query :: // query Activity value for entry `CCOC(=O)c1sc(N)c(C(=O)NN)c1C`
Result :: 22.22%

Query :: // query Activity value for entry `CCOC(=O)c1sc(N)c(C(=O)N/N=C/c2ccc(OC)cc2)c1C`
Result :: 3.82%

// below: Activity requested for another compound
Query :: // query Activity value for entry `CCOC(=O)c1sc(N)c(C(=O)NNc2nc(C)cs2)c1C`
Result :: 93.42%

###

# System: Mus musculus
# RUN_DESCRIPTION: Analgesic activity in Swiss albino mouse at 20 mg/kg, po assessed as reaction time after 30 mins by hot plate method
# Format: functional
Quick list: Activity per entry.
Numbers only here, please. The scale is s.

Query :: // query Activity value for entry `CCOC(=O)c1sc(NC(C)=O)c(C(=O)OCC)c1C`
Result :: 7.34

Query :: // query Activity value for entry `CCOC(=O)c1sc2[nH]c(=S)n(N)c(=O)c2c1C`
Result :: 6.6

Query :: // query Activity value for entry `CCOC(=O)c1sc(N)c(C(=O)NNc2nc(C)cs2)c1C`
Result :: 6.68

Query :: // query Activity value for entry `CC(=O)Oc1ccccc1C(=O)O`
Result :: 6.66

Query :: // query Activity value for entry `CCOC(=O)c1sc2nc(C)n(N)c(=O)c2c1C`
Result :: 6.46

Query :: // query Activity value for entry `CCOC(=O)c1sc(N)c(C(=O)NNC=O)c1C`
Result :: 6.08

###

Quick list: Activity per entry.
# System: Rattus norvegicus
# RUN_DESCRIPTION: Antiinflammatory activity against carrageenan-induced albino rat hind paw edema model assessed as edema rate at 15 mg/kg, po administered 1 hr before carrageenan challenge measured after 3 hrs
# Assay type: functional
Numbers only here, please. The scale is %.

Query :: // query Activity value for entry `CCOC(=O)c1sc(N)c(C(=O)N2NC(=O)CC2=O)c1C`
Result :: -20.9

Query :: // query Activity value for entry `CCOC(=O)c1sc2[nH]c(=S)n(N)c(=O)c2c1C`
Result :: -10.58

Query :: // query Activity value for entry `CCOC(=O)c1sc(N)c(C(=O)NNC=O)c1C`
Result :: -29.58

Query :: // query Activity value for entry `CCOC(=O)c1sc(N)c(C(=O)N/N=C/c2ccc(OC)cc2)c1C`
Result :: -3.91

Query :: // query Activity value for entry `CCOC(=O)c1sc(N)c(C(=O)NNc2nc(C)cs2)c1C`
Result :: -25.33

New cases:
Query :: // query Activity value for entry `CCOC(=O)c1sc2nc(C)n(N)c(=O)c2c1C`
Result :: -14.65

Query :: // query Activity value for entry `CCOC(=O)c1sc(N)c(C(=O)NN)c1C`
Result :: -9.8

Query :: // query Activity value for entry `CCOC(=O)c1sc(NC(C)=O)c(C(=O)OCC)c1C`
Result :: -4

Query :: // query Activity value for entry `CCOC(=O)c1sc(N)c(C(=O)n2nc(C)cc2C)c1C`
Result :: 8.46

Query :: // query Activity value for entry `CCOC(=O)c1sc(N)c(C(=O)NNC(N)=S)c1C`
Result :: -29.4
